Where these numbers come from: PubChem BioAssay (NCI)

- Tested on: RXF 393 renal
- assay-overview: NCI-60 one-dose screen, 48 h (100 = growth as untreated, 0 = no growth, -100 = all killed)
- test-context: 10 µM unless noted
This is part of a sample that, as a whole, favours compounds with a hit. Of some 83,000 tested, about 20% had one in any assay.
measure-name: growth (%)
Write the answer as a number in %, unit excluded.

Please report the recorded growth for COc1ccc(-c2c3c(nn2-c2ccc(N)cc2)CCc2cnoc2-3)cc1OC .
93

Please report the recorded growth for CC12CCC3C(CCC4CC(=O)/C(=C\O)CC43C)C1CCC(=O)O2 (stereo not given) .
141

Please report the recorded growth for Cn1cc(-c2csc(-c3c[nH]c4ncccc34)n2)c2cc(Br)cnc21 .
26.1

Please report the recorded growth for CC(NC(=O)C(C)Oc1ccc(Cl)cc1Cl)C(=O)O (stereo not given) .
120

Please report the recorded growth for COc1ccc(-c2c(N)noc2-c2cc(OC)c3c(c2)OCCO3)cc1 .
39.2

---

- Tested on: RPMI-8226 leukemia
- assay-overview: NCI-60 one-dose screen, 48 h (100 = growth as untreated, 0 = no growth, -100 = all killed)
- test-context: 10 µM unless noted
Compounds without any hit were thinned out: in the full panel of roughly 83,000, 20% have a hit. Calls of active or inactive are those of the source. The calls were made as follows: active = growth percent below 10; inactive = the rest.
For each entry below, report its growth value.

Please report the recorded growth for C=C(C[C@@](O)(C(=O)Oc1ccccc1)C(=O)C1CCCCC1)c1ccccc1 .
92% (inactive)

Please report the recorded growth for O=C1NCN(CCO)CN1 .
85.6% (inactive)

Please report the recorded growth for O=C(CSc1nc2c(n1Nc1ccccc1)-c1ccccc1SC2)Nc1nc(-c2ccc(Cl)cc2)cs1 .
86.1% (inactive)

Please report the recorded growth for COc1ccc(C(=O)C(C)Br)cc1OC (stereo unspecified) .
85.5% (inactive)

Please report the recorded growth for O[C@@H]1Cc2ccc3ccccc3c2N[C@H](c2ccoc2)C1 .
103% (inactive)

Please report the recorded growth for CCCCCCCCCCC[C@@H](C[C@H]1OC(=O)[C@H]1CCCCCC)OC(=O)[C@@H](CC(C)C)NC=O .
0.857% (active)

Please report the recorded growth for CCCCc1nc(Cl)c(CO)n1Cc1ccc(-c2ccccc2-c2nn[nH]n2)cc1 .
115% (inactive)

Please report the recorded growth for CCN1CCN(c2cc(-c3cn[nH]c3-c3cc(C)cc(OC)c3)nc(-c3cccnc3)n2)CC1 .
86.2% (inactive)

Please report the recorded growth for Cc1cc(NC(=O)Nc2cccc3ccccc23)no1 .
102% (inactive)

Please report the recorded growth for CN(C)c1nc(N)nc(Cn2c(-c3nonc3N)nc3ccccc32)n1 .
87.9% (inactive)

Please report the recorded growth for CN(C)c1ccc(/C=C(\C#N)c2nc3ccccc3c(=O)[nH]2)cc1 .
140% (inactive)

Please report the recorded growth for CC(C)c1nc(N(C)S(C)(=O)=O)nc(-c2ccc(F)cc2)c1/C=C/[C@@H](O)C[C@@H](O)CC(=O)O .
113% (inactive)

Please report the recorded growth for COc1ccc(-c2csc(NC(=O)c3cc(OC)c(OC)c(OC)c3)n2)cc1 .
92.7% (inactive)

Please report the recorded growth for N=C(N)/N=C(\CCc1nc2ccccc2[nH]1)c1nc2ccccc2[nH]1 .
105% (inactive)

Please report the recorded growth for CCN(CC)CCOc1ccccc1-n1c(C)ccc1-c1ccccc1 .
63.2% (inactive)

Please report the recorded growth for COc1ccc(Nc2ccnc(NCCCNc3ccnc4cc(Cl)ccc34)n2)cc1 .
-60.5% (active)

Please report the recorded growth for Fc1ccc(-c2nc(Nc3ccc(-c4nc5ccccc5[nH]4)cc3)nc(N3CCOCC3)n2)cc1 .
-73.4% (active)

Please report the recorded growth for COc1cc2c(C#N)n3c(c2cc1OC)C(=O)C(c1ccccc1)Oc1ccccc1-3 (stereo unspecified) .
28.7% (inactive)

Please report the recorded growth for COc1ccc2nc(NC(=O)c3cc(-c4ccc(F)cc4)n4nc(-c5ccccc5)cc4n3)sc2c1 .
83.5% (inactive)

Please report the recorded growth for Nc1ccc(C2=Nc3cccc4cccc(c34)S2)cc1 .
81.8% (inactive)

Please report the recorded growth for COc1ccc(-c2c(-c3cc(OC)c(OC)c(OC)c3)noc2N)cc1 .
10.9% (inactive)
